# assay.procedure: soluble on expression in E. coli; label from the status in PepcDB or PDB records
value.kind: soluble on expression in E. coli

ordered.residues	result
MQSVELPETHQMLLQTCRDFAEKELFPIAAQVDKEHLFPAAQVKKMGGLGLLAMDVPEELGGAGLDYLAYAIAMEEISRGCASTGVIMSVNNSLYLGPILKFGSKEQKQAWVTPFTSGDKIGCFALSEPGNGSDAGAASTTARAEGDSWVLNGTKAWITNAWEASAAVVFASTDRALQNKSISAFLVPMPTPGLTLGKKEDKLGIRGSSTANLIFEDCRIPKDSILGEPGMGFKIAMQTLDMGRIGIASQALGIAQTALDCAVNYAENRMAFGAPLTKLQVIQFKLADMALALESARLLTWRAAMLKDNKKPFIKEAAMAKLAASEAATAISHQAIQILGGMGYVTEMPAERHYRDARITEIYEGTSEIQRLVIAGHLLRSYRSAENLYFQ	soluble
MSLKKTVSLCDITITQMLEEDSNQGHLIGDFSKVCALPTVSGKHQDLKYVNPETVAALLSGKFQGLIEKFYVIDCRYPYEYLGGHIQGALNLYSQEELFNFFLKKPIVPLDTQKRIIIVFHCEFSSERGPRMCRCLREEDRSLNQYPALYYPELYILKGGYRDFFPEYMELCEPQSYCPMHHQDHKTELLRCRSQSKVQEEGHHHHHH	soluble
GMKTLCTHSLPKEKMPYLLRSGEGERYLFGRQVATVMANGRSTGDLFEIVLLSGGKGDAFPLHVHKDTHEGILVLDGKLELTLDGERYLLISGDYANIPAGTPHSYRMQSHRTRLVSYTMKGNVAHLYSVIGNPYDHAEHPPYASEEVSNERFAEAAAVADIVFLDEAKPACSAKLAELTELPDGAVPYVLESGEGDRLLTGDQLHRIVAAQKNTDGQFIVVSSEGPKGDRIVDHYHEYHTETFYCLEGQMTMWTDGQEIQLNPGDFLHVPANTVHSYRLDSHYTKMVGVLVPGLFEPFFRTLGDPYEGHIFPCEPQALRFDRILQNIEALDLKVMKP	soluble

====

# assay.procedure: soluble on expression in E. coli; label from the status in PepcDB or PDB records
value.kind: soluble on expression in E. coli

Reference set (5 entries):
ordered.residues	soluble on expression in E. coli
MNNYLRKLVEGQHLTEEEMYKAGLLLLNENILESEIAAFLVLLKAKGETAEEIYGLVRALREKALPFSNHIQGAMDNCGTGGDGAQTFNISTTSAFVLAGAGVKVAKHGNRAVSSKTGSADLLEELGVNISSTPNEIDYLLEHVGIAFLFAPAMHPALKRIMKIRKELNVPTIFNLIGPLTNPVNLETQFVGIYKRDMLLPVAQVLQKLGRKQALVVNGSGFLDEASLQGENHVVILKDNEIVETSIEPEKYGFSIVKNEEIRGGNSKENAKITLGVLSGEKSVYRDTVLFNAGLALFANGKAKTIEEGITLAAHSIDSGKALAKLNLLIAASNEELERVN	not soluble
MGSDKIHHHHHHMIGKFFASINLSDVAAMAGIPISFMTAYSISPEIEISFLEDIESGIMKVLKMYDVDFIGGDLKEGMDLILTGIAIGKQKKTLTRKRSDIGRKQMVAYTNKLGRAASGYIFYKSGYDSVEGINMMLGITPRLEEARIISEYGAKFMMDLSDGLYSSLNQMKADYGVGFKIVEDEVVYDDSARKAAEISGASVYDIACGYGGDYELLFTVPEENYRDFAQAMESNNIEVHFIGETWEGENIVFDGKTWTKMKDEGYEHFRPKPQLGEIR	not soluble
MEVHKAITAHSRKQNESVKACLQLDAQREAAIEAAVSLASNGKEFSVDVINVVTKQINDLAKNGVTLQRKYVTEEMVMEYVSRLKKKEGR	not soluble
MKEEKRSSTGFLVKQRAFLKLYMITMTEQERLYGLKLLEVLRSEFKEIGFKPNHTEVYRSLHELLDDGILKQIKVKKEGAKLQEVVLYQFKDYEAAKLYKKQLKVELDRSKKLIEKALSDNF	soluble
MPTPEKRLRLMQLASNSLPVGGYSWSQGLEWAVEAGWVEDSAAFEHWQQLQMEQSFFAVDLPLLARLYRACEAGDPDSAGRWTAYLLACRETRELRDEERNRGAAFTRLLVDWQPDCPAEWRKLCQQSQLTGMAWLGVRWQISVSDLALSLGYSWIESAVMAGVRLVPYGQLAAQQLIMRLCARYAANMDSALATPDHAIGSATPLASIASARHETQYSRLFRS	not soluble

Look at this sequence and give its reported soluble on expression in E. coli. KQLLTLKIKCSNQPERQILEKQLPDSMTVQKVKGLLSRLLKVPVSELLLSYESSKMPGREIELENDLQPLQFYSVENGDCLLVR
soluble

Look at this sequence and give its reported soluble on expression in E. coli. MGSDKIHHHHHHMMPVRQTLSKPDIQLSYLEWNQGQEPLLLLHGLGDHALVWSSLGDYLAADYHIVAPDMRGHGESTKPERDYTFESAIADLEALMDHLGWTSAQIVSHSWTGKLAAIWARQNRKRLRSIILVDPIFIWKMPSLLRLTFPMLYRFLPFLKSMGPFTSHEEAEQQARQLKQYQGWSSLQEQVFQAGIEQKPDGSWGSKFTIAARDEIFEAVMQVPGFTIPLDIQALFIQPEQGLNRQDWQIQPYKTYLKKLRICQVPGNHWPFLTQPETFNQTVAAFLAEHR
not soluble

Look at this sequence and give its reported soluble on expression in E. coli. MGSDKIHHHHHHMQVRTFKGPSAKTVLDMIKAEIGPEAVILSSRDCSGDGVTWCEMTVGVEREAAAAPRMGRDEPAAGDQTPPAGWDEWHREWDEIKGHIMALMKPALRLDELAPRQRVALEYLEREGVEDNVILALYRRLRGAPSLSVLEPLSAVVPVKGWGGADWPQKMQIVCGPSGVGKTSAVVRMALALRRQNAGVRICVLNADSQRGSGRMVLRHYAELCGMGYHEISGPADAAALLGELDGYDKILVDTPVPGRGATLRSLLEETGLDVLEQQVPAAVQLVMSPLYGDAQISFFLRQYECGLPCGLVWTKLDEACNFGALINVPAASGLPVTALSFGSGLKNSLASARGTMIWRLVFKKQLPGDVAAR
not soluble

Look at this sequence and give its reported soluble on expression in E. coli. MAFEATKREWCELYTFFRLLTEGKVTLGTAKAKKGEIDWPIAMIQREEHDGTRCYYIEKEMVRIKGENSEKFVPREDFGIVADLILQAVKSSSEDEVTSPDGVEEFLDEVAIFDLEAKTEDRTDFYIAFWHPEAPLSGFSVRSRLGAMNPLLDGGRAANLKLEQSGVKFATPTVNKINALPEAPNEVAERMLLIERLGGVLKYSDVADRVFRSNLLMIDLHFPRVLTEMVRIMHLDDITRISELTEVIKQMNPLKIKDELVNKHGFYEFKVKQFLMALALGMRPAKIYTGQDSAVEGILLMDGSGEVLCYHKSEKPVMEDFLFLNTRLEKGSLDKDKYGFLERENGTYYFKLNAKIGLVKR
not soluble

Look at this sequence and give its reported soluble on expression in E. coli. DNMFCNKEYCNRLKDENNCISNLQVEDQGNCDTSWIFASKYHLETIRCMKGYEPTKISALYVANCYKGEHKDRCDEGSSPMEFLQIIEDYGFLPAESNYPYNYVKVGEQCPKVEDHWMNLWDNGKILHNKNEPNSLDGKGYTAYESERFHDNMDAFVKIIKTEVMNKGSVIAYIKAENVMGYEFSGKKVKNLCGDDTADHAVNIVGYGNYVNSEGEKKSYWIVRNSWGPYWGDEGYFKVDMYGPTHCHFNFIHSVVIFNVDLPMN
soluble

Look at this sequence and give its reported soluble on expression in E. coli. MKQRPKEYYEQLEELQAVDFTLVELTLYLDTHPTDYQAIQQFNQLAQKRKQLKKQFEAAYGPLEQFGHSYSNYPWNWDDTPWPWQV
not soluble

Look at this sequence and give its reported soluble on expression in E. coli. MAHHHHHHMGKVKKQANHAIKKILMKEKSLAMKKKREAESYHETPESNTTTQATKDYAAVLFRKALVTQAAPTRTAHFLSYNTALGPPYRIWLDTNFINFSMQNKIDIVQGLMDCLLAKVIPCICDCVFAELEKLGKKFRIALKLARDKRFERLTCDSKYADDCVVRTVTQHPIYIVATCDQELKRRLRKVPGVPIMYIAKHRYTIERLPEAYGAPE
not soluble

Look at this sequence and give its reported soluble on expression in E. coli. ASLIEDIDKKHLVLLRDGRTLIGFLRSIDQFANLVLHQTVERIHVGKKYGDIPRGIFVVRGENVVLLGEI
not soluble
